- ASSAY_COMMENT: Half-life, absorption window and permeability
- Type: in vivo
- MEASUREMENT_SETUP: human, plasma; read-out: half-life (t½) (converted)
TEST_READOUT: half-life (h)
Record the value in h, omitting the unit from your answer.

Please give the measured half-life for this molecule: `Cc1c(Cc2ccc(OC(C)C)cc2)c(O[C@@H]2O[C@H](CO)[C@@H](O)[C@H](O)[C@H]2O)nn1C(C)C` 1.5

---

- ASSAY_COMMENT: Half-life, absorption window and permeability
- Assay type: in vivo
- MEASUREMENT_SETUP: human, in vivo; read-out: half-life (t½) (converted)
TEST_READOUT: half-life (min)
Record the value in min, omitting the unit from your answer.

Please give the measured half-life for this compound: CCOC(=O)OC[C@H]1O[C@@H](Oc2nn(C(C)C)c(C)c2Cc2ccc(OC(C)C)cc2)[C@H](O)[C@@H](O)[C@@H]1O [remogliflozin etabonate] 90
